So I've got a bunch of compounds here, and I need their Ki values.
Molecular target: AAC(6′)-Iy (Salmonella enteritidis, UniProt Q9R381)
Sequence (Q9R381 whole entry): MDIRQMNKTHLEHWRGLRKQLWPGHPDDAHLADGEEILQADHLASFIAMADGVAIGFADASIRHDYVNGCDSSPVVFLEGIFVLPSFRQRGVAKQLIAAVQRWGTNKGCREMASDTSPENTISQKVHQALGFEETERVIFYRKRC
Test: Inhibition assay of AAC(6′)-Iy
Format: biochemical, Salmonella enterica
Settings: Table 2
Dear colleague, please return just the value in µM, with no unit written.

Query for AAC(6′)-Iy (Salmonella enteritidis, UniProt Q9R381): what Ki does the record show for CC(C)(COP(=O)(O)OP(=O)(O)OCC1OC(n2cnc3c(N)ncnc32)C(O)C1OP(=O)(O)O)C(O)C(=O)NCCC(=O)NCCSCCCCC(=O)NCC1OC(OC2C(N)CC(N)C(O)C2O)C(N)C(O)C1O (centres unmarked) [Compound 10d] ? 1.9

Query for AAC(6′)-Iy (Salmonella enteritidis, UniProt Q9R381): what Ki does the record show for CC(C)(COP(=O)(O)OP(=O)(O)OCC1OC(n2cnc3c(N)ncnc32)C(O)C1OP(=O)(O)O)C(O)C(=O)NCCC(=O)NCCSCCCC(=O)NCC1OC(OC2C(N)CC(N)C(O)C2O)C(N)C(O)C1O (centres unmarked) [Compound 10c] ? 2.1

Query for AAC(6′)-Iy (Salmonella enteritidis, UniProt Q9R381): what Ki does the record show for CC(C)(COP(=O)(O)OP(=O)(O)OCC1OC(n2cnc3c(N)ncnc32)C(O)C1OP(=O)(O)O)C(O)C(=O)NCCC(=O)NCCSCC(=O)NCC1OC(OC2C(N)CC(N)C(O)C2OC2OC(CO)C(O)C2O)C(N)C(O)C1O (centres unmarked) [Compound 12] ? 1.1

Query for AAC(6′)-Iy (Salmonella enteritidis, UniProt Q9R381): what Ki does the record show for CC(C)(COP(=O)(O)OP(=O)(O)OCC1OC(n2cnc3c(N)ncnc32)C(O)C1OP(=O)(O)O)C(O)C(=O)NCCC(=O)NCCSCC(=O)NCC1OC(OC2C(N)CC(N)C(O)C2O)C(N)C(O)C1O (centres unmarked) [Compound 10a] ? 2.76

Query for AAC(6′)-Iy (Salmonella enteritidis, UniProt Q9R381): what Ki does the record show for CC(C)(COP(=O)(O)OP(=O)(O)OCC1OC(n2cnc3c(N)ncnc32)C(O)C1OP(=O)(O)O)C(O)C(=O)NCCC(=O)NCCSCCC(=O)NCC1OC(OC2C(N)CC(N)C(O)C2O)C(N)C(O)C1O (centres unmarked) [Compound 10b] ? 1.89
